biological target: Calmodulin-1 (Homo sapiens) (UniProt P0DP23); assay: CALM1 binders on microarrays, EGTA buffer, profiling panel, biochemical, small-molecule microarray, Cy5-labelled CALM1 (AID 1111); details: Cy5-CALM1 binding fluorescence, higher = more signal;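 also: labelled calmodulin applied in Tris saline Tween buffer holding calcium plus EGTA and DTT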
Reported composite z-score values for a set of compounds
Lab note: record the figure alone, no unit after it.

Q: May I ask what composite z-score has been recorded for COc1ccc(C(O)C2C=CC3C(=O)N(Cc4ccccc4)C(=O)C3N2n2cnnc2)cc1OCc1ccccc1 (stereo unspecified) ?
Result: 0.0367

Q: May I ask what composite z-score has been recorded for C[N+](C)(C)CCCC[C@@H]1NC(=O)[C@H]2C[C@@H](C(=O)NCCCCCCNC(=O)CS)[C@@H](c3cccc(OCCO)c3)N2C1=O ?
Result: -0.149

Q: May I ask what composite z-score has been recorded for COC(=O)C[C@H]1O[C@]2(C(=O)N(C)c3ccccc32)[C@@H](C)[C@@H]1[Si](C)(C)F ?
Result: 0.0461

Q: May I ask what composite z-score has been recorded for COCCOC(=O)N1C(=O)[C@@]2(c3cc(C#CCNC(N)=O)ccc31)[C@H](C(=O)N1CCN(c3ncccn3)CC1)[C@H]1C(=O)O[C@H](c3ccccc3)[C@H](c3ccccc3)N1[C@@H]2c1ccc(OCCO)cc1 ?
Result: 0.392

Q: May I ask what composite z-score has been recorded for O=C(CS)NCCCCCCNC(=O)[C@@H]1C[C@@H]2C(=O)NCC(=O)N2[C@@H]1c1cccc(OCCO)c1 ?
Result: 2.44

Q: May I ask what composite z-score has been recorded for CCCC[C@@H]1C[C@H]1[C@@H](NC(=O)c1ccco1)c1ccc(-c2ccccc2)cc1 ?
Result: -0.179

Q: May I ask what composite z-score has been recorded for COc1cc(COC(C)=O)ccc1OC(C)=O ?
Result: 0.434
